src = the supplement of paper PMC10307832

Tested on: EKVX
Run description: relative viability (nuclei count vs DMSO), 5 days (fraction); higher = more cells survive
Assay context: first compound 6.325 µM
Each entry below carries its reported relative viability.
Number only, please.

Cc1csc(=NC2CCCCC2)n1/N=C/c1ccc(O)c(O)c1O [MIM1] + O=C(c1cc(Cc2n[nH]c(=O)c3ccccc23)ccc1F)N1CCN(C(=O)C2CC2)CC1 [Olaparib] (partner 8 µM)    0.51
Cc1csc(=NC2CCCCC2)n1/N=C/c1ccc(O)c(O)c1O [MIM1] + Nc1nc2[nH]cc(CCc3ccc(C(=O)N[C@@H](CCC(=O)O)C(=O)O)cc3)c2c(=O)[nH]1 [Pemetrexed] (partner 0.2 µM)    0.287
Cc1csc(=NC2CCCCC2)n1/N=C/c1ccc(O)c(O)c1O [MIM1] + C[C@]1(O)C[C@@H](c2nc(-c3ccc4ccc(-c5ccccc5)nc4c3)c3c(N)nccn32)C1 [Linsitinib] (partner 1 µM)    0.631

Ask: Given the entry Cc1csc(=NC2CCCCC2)n1/N=C/c1ccc(O)c(O)c1O [MIM1] + Cc1nc(NC(=O)N2CCC[C@H]2C(N)=O)sc1-c1ccnc(C(C)(C)C(F)(F)F)c1 [Alpelisib] (partner 2 µM) , what relative viability was observed with EKVX?
Reply: 0.575

Ask: And then Cc1csc(=NC2CCCCC2)n1/N=C/c1ccc(O)c(O)c1O [MIM1] + CC(=O)Nc1cccc(-n2c(=O)n(C3CC3)c(=O)c3c(Nc4ccc(I)cc4F)n(C)c(=O)c(C)c32)c1 [Trametinib] (partner 0.02 µM) , what is it?
Reply: 0.267

Ask: And then Cc1csc(=NC2CCCCC2)n1/N=C/c1ccc(O)c(O)c1O [MIM1] + COc1cc2c(Oc3ccc(NC(=O)C4(C(=O)Nc5ccc(F)cc5)CC4)cc3F)ccnc2cc1OCCCN1CCOCC1 [Foretinib] (partner 0.25 µM) , what is it?
Reply: 0.379

###

System: NCI-H1650
Run description: relative viability (nuclei count vs DMSO), 5 days (fraction); higher = more cells survive
Assay context: first compound 0.6325 µM
Measured attribute: relative viability
Number only, please.

Cc1csc(=NC2CCCCC2)n1/N=C/c1ccc(O)c(O)c1O [MIM1] + CC(=O)Nc1cccc(-n2c(=O)n(C3CC3)c(=O)c3c(Nc4ccc(I)cc4F)n(C)c(=O)c(C)c32)c1 [Trametinib] (partner 0.02 µM)    0.619
CN1CCN(CCOc2cc(OC3CCOCC3)c3c(Nc4c(Cl)ccc5c4OCO5)ncnc3c2)CC1 [Saracatinib] + CC(=O)Nc1cccc(-n2c(=O)n(C3CC3)c(=O)c3c(Nc4ccc(I)cc4F)n(C)c(=O)c(C)c32)c1 [Trametinib] (partner 0.02 µM)    0.505

The record that follows has no relative viability shown yet.
Ask: Dear colleague, I am looking for the recorded relative viability of the following molecule: CN1CCN(CCOc2cc(OC3CCOCC3)c3c(Nc4c(Cl)ccc5c4OCO5)ncnc3c2)CC1 [Saracatinib] + Nc1nc2[nH]cc(CCc3ccc(C(=O)N[C@@H](CCC(=O)O)C(=O)O)cc3)c2c(=O)[nH]1 [Pemetrexed] (partner 0.2 µM)
Reply: 0.318

###

Each entry below carries its reported relative viability.
System: BEN
Run description: relative viability (nuclei count vs DMSO), 5 days (fraction); higher = more cells survive
Assay context: first compound 6.325 µM
Number only, please.

Ask: Given the entry Cc1csc(=NC2CCCCC2)n1/N=C/c1ccc(O)c(O)c1O [MIM1] + CC1(C)CCC(c2ccc(Cl)cc2)=C(CN2CCN(c3ccc(C(=O)NS(=O)(=O)c4ccc(N[C@H](CCN5CCOCC5)CSc5ccccc5)c(S(=O)(=O)C(F)(F)F)c4)cc3)CC2)C1 [Navitoclax] (partner 0.5 µM) , what relative viability was observed with BEN?
Reply: 0.0911

Ask: And then Cc1csc(=NC2CCCCC2)n1/N=C/c1ccc(O)c(O)c1O [MIM1] + CC(=O)c1c(C)c2cnc(Nc3ccc(N4CCNCC4)cn3)nc2n(C2CCCC2)c1=O [Palbociclib] (partner 0.5 µM) , what is it?
Reply: 0.468

###

Each entry below carries its reported relative viability.
System: EPLC-272H
Run description: relative viability (nuclei count vs DMSO), 5 days (fraction); higher = more cells survive
Assay context: first compound 0.2 µM
Number only, please.

CCNC(=O)c1noc(-c2cc(C(C)C)c(O)cc2O)c1-c1ccc(CN2CCOCC2)cc1 [Luminespib] + Nc1ncn([C@H]2C[C@H](O)[C@@H](CO)O2)c(=O)n1 [Decitabine] (partner 2 µM)    0.106

Ask: Dear colleague, I am looking for the recorded relative viability of the following compound: CN1CCN(CCOc2cc(OC3CCOCC3)c3c(Nc4c(Cl)ccc5c4OCO5)ncnc3c2)CC1 [Saracatinib] + Nc1nc2[nH]cc(CCc3ccc(C(=O)N[C@@H](CCC(=O)O)C(=O)O)cc3)c2c(=O)[nH]1 [Pemetrexed] (partner 0.2 µM)
Reply: 0.313

Ask: And then Cc1csc(=NC2CCCCC2)n1/N=C/c1ccc(O)c(O)c1O [MIM1] + Cc1nc(Nc2ncc(C(=O)Nc3c(C)cccc3Cl)s2)cc(N2CCN(CCO)CC2)n1 [Dasatinib] (partner 0.075 µM) , what is it?
Reply: 0.406

Ask: And then Cc1csc(=NC2CCCCC2)n1/N=C/c1ccc(O)c(O)c1O [MIM1] + COc1cc2c(Oc3ccc(NC(=O)C4(C(=O)Nc5ccc(F)cc5)CC4)cc3F)ccnc2cc1OCCCN1CCOCC1 [Foretinib] (partner 0.25 µM) , what is it?
Reply: 0.779

Ask: And then CCNC(=O)c1noc(-c2cc(C(C)C)c(O)cc2O)c1-c1ccc(CN2CCOCC2)cc1 [Luminespib] + CC(C)C[C@H](NC(=O)[C@H](Cc1ccccc1)NC(=O)c1cnccn1)B(O)O [Bortezomib] (partner 0.002 µM) , what is it?
Reply: 0.293

Ask: And then CCNC(=O)c1noc(-c2cc(C(C)C)c(O)cc2O)c1-c1ccc(CN2CCOCC2)cc1 [Luminespib] + N=C(N)NC(=N)NCCc1ccccc1 [Phenformin] (partner 250 µM) , what is it?
Reply: 0.0832

Ask: And then Cc1csc(=NC2CCCCC2)n1/N=C/c1ccc(O)c(O)c1O [MIM1] + NC(=O)Nc1cc(-c2cccc(F)c2)sc1C(=O)N[C@H]1CCCNC1 [AZD7762] (partner 0.2 µM) , what is it?
Reply: 0.224

Ask: And then CN1CCN(CCOc2cc(OC3CCOCC3)c3c(Nc4c(Cl)ccc5c4OCO5)ncnc3c2)CC1 [Saracatinib] + CC1(C)CCC(c2ccc(Cl)cc2)=C(CN2CCN(c3ccc(C(=O)NS(=O)(=O)c4ccc(N[C@H](CCN5CCOCC5)CSc5ccccc5)c(S(=O)(=O)C(F)(F)F)c4)cc3)CC2)C1 [Navitoclax] (partner 0.5 µM) , what is it?
Reply: 0.976

Ask: And then Cc1csc(=NC2CCCCC2)n1/N=C/c1ccc(O)c(O)c1O [MIM1] + Cc1cc(Nc2cc(N3CCN(C)CC3)nc(Sc3ccc(NC(=O)C4CC4)cc3)n2)n[nH]1 [Tozasertib] (partner 0.1 µM) , what is it?
Reply: 0.425

Ask: And then Cc1csc(=NC2CCCCC2)n1/N=C/c1ccc(O)c(O)c1O [MIM1] + N=C(N)NC(=N)NCCc1ccccc1 [Phenformin] (partner 250 µM) , what is it?
Reply: 0.324

Ask: And then CCNC(=O)c1noc(-c2cc(C(C)C)c(O)cc2O)c1-c1ccc(CN2CCOCC2)cc1 [Luminespib] + C[C@]1(O)C[C@@H](c2nc(-c3ccc4ccc(-c5ccccc5)nc4c3)c3c(N)nccn32)C1 [Linsitinib] (partner 1 µM) , what is it?
Reply: 1.14

Ask: And then CN1CCN(CCOc2cc(OC3CCOCC3)c3c(Nc4c(Cl)ccc5c4OCO5)ncnc3c2)CC1 [Saracatinib] + O=C(c1cc(Cc2n[nH]c(=O)c3ccccc23)ccc1F)N1CCN(C(=O)C2CC2)CC1 [Olaparib] (partner 8 µM) , what is it?
Reply: 0.714

Ask: And then CN1CCN(CCOc2cc(OC3CCOCC3)c3c(Nc4c(Cl)ccc5c4OCO5)ncnc3c2)CC1 [Saracatinib] + Nc1ncn([C@H]2C[C@H](O)[C@@H](CO)O2)c(=O)n1 [Decitabine] (partner 2 µM) , what is it?
Reply: 0.361

###

Tested on: A-427
Run description: relative viability (nuclei count vs DMSO), 5 days (fraction); higher = more cells survive
Assay context: first compound 0.02 µM
Measured attribute: relative viability
Number only, please.

Known results for compounds:
CCNC(=O)c1noc(-c2cc(C(C)C)c(O)cc2O)c1-c1ccc(CN2CCOCC2)cc1 [Luminespib] + CS(=O)(=O)N1CCN(Cc2cc3nc(-c4cccc5[nH]ncc45)nc(N4CCOCC4)c3s2)CC1 [Pictilisib] (partner 1 µM)    0.441
CN1CCN(CCOc2cc(OC3CCOCC3)c3c(Nc4c(Cl)ccc5c4OCO5)ncnc3c2)CC1 [Saracatinib] + N=C(N)NC(=N)NCCc1ccccc1 [Phenformin] (partner 250 µM)    0.352
CN1CCN(CCOc2cc(OC3CCOCC3)c3c(Nc4c(Cl)ccc5c4OCO5)ncnc3c2)CC1 [Saracatinib] + Nc1nc2[nH]cc(CCc3ccc(C(=O)N[C@@H](CCC(=O)O)C(=O)O)cc3)c2c(=O)[nH]1 [Pemetrexed] (partner 0.2 µM)    0.963

Ask: Dear colleague, I am looking for the recorded relative viability of the following compound: CN1CCN(CCOc2cc(OC3CCOCC3)c3c(Nc4c(Cl)ccc5c4OCO5)ncnc3c2)CC1 [Saracatinib] + COc1cc2c(Oc3ccc(NC(=O)C4(C(=O)Nc5ccc(F)cc5)CC4)cc3F)ccnc2cc1OCCCN1CCOCC1 [Foretinib] (partner 0.25 µM)
Reply: 1.09

Ask: And then CN1CCN(CCOc2cc(OC3CCOCC3)c3c(Nc4c(Cl)ccc5c4OCO5)ncnc3c2)CC1 [Saracatinib] + CC(C)C[C@H](NC(=O)[C@H](Cc1ccccc1)NC(=O)c1cnccn1)B(O)O [Bortezomib] (partner 0.002 µM) , what is it?
Reply: 1.03
